This collection of values is drawn from patent US9334285B2.

TEST SYSTEM: aldosterone synthase (CYP11B2) (Macaca fascicularis)
Sequence (A0A2K5UPL9 1-503): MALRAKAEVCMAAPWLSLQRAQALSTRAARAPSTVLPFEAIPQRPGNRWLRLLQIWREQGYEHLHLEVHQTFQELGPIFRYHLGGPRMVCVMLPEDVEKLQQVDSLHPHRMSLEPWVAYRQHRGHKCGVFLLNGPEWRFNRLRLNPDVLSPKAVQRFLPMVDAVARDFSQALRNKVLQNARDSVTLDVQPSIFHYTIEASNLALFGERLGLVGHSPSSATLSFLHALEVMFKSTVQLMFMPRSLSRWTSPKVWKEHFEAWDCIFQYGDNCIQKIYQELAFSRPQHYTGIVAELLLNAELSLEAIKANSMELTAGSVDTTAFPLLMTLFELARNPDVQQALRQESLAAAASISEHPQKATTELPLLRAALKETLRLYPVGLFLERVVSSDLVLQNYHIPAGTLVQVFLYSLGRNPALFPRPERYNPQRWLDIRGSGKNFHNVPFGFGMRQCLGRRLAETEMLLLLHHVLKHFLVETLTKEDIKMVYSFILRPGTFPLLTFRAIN
REPORTED ENDPOINT: pIC50
Units for pIC50: none; it is -log10 of a concentration expressed in mol/L.

I have this compound here, CC1(CO)Cc2ncn(-c3ccc4c(c3)CCO4)c2C(=O)O1 (single isomer, unassigned) [Compound 42A] , and I need its recorded pIC50.
6.68

Query: pIC50; subject: CC1(C)Cc2ncn(-c3ccc(F)c(F)c3)c2C(=O)O1 [Compound 2]
7.04

Item CC1(C)Cc2ncn(-c3cccc(Cl)c3F)c2C(=O)O1 [Compound 8] has what recorded pIC50?
7.46

Requested field: pIC50. Item: CC1Cc2ncn(-c3ccc(C#N)cc3)c2C(=O)O1 (single isomer, unassigned) [Compound 16A]
7.00

Sample CC1(C)Cc2ncn(-c3ccc(C#N)cc3)c2C(=O)O1 [Compound 3] — what was its pIC50?
7.46

Reported pIC50, compound CN(C)C(=O)C1(C)Cc2ncn(-c3ccc(C#N)c(Cl)c3)c2C(=O)O1 (centres unmarked) [Compound 46] : ____
7.05

Give the measured pIC50 of CC1(CO)Cc2ncn(-c3ccc(Cl)cc3)c2C(=O)O1 (single isomer, unassigned) [Compound 38B] .
6.41

Name the recorded pIC50 for C[C@]1(CO)Cc2ncn(-c3ccc(C#N)c(Cl)c3)c2C(=O)O1 (single isomer, unassigned) [Compound 29A] .
7.80
